Origin of the recorded values: ChEMBL document CHEMBL1127046

Method summary: Inhibition of DNA topoisomerase II from rat liver measured as 50% reduction in the amount of minicircle DNA relative to the control
Could you please report measured IC50 for the items listed next?
Report the figure in µM without appending any unit label.

Sample COc1cc([C@@H]2c3cc4c(cc3[C@@H](CCN(C)N(C)C)C3COC(=O)[C@@H]32)OCO4)cc(OC)c1O.Cl (some centres not stated) ; IC50 observed: 58.3

The compound identified as COc1cc([C@@H]2c3cc4c(cc3[C@@H](CCCN(C)C)C3COC(=O)[C@@H]32)OCO4)cc(OC)c1O.Cl (some centres not stated) registered its IC50 at 73.5

Documented IC50 of COc1cc([C@@H]2c3cc4c(cc3[C@@H](CCN(C)C(CO)CO)C3COC(=O)[C@@H]32)OCO4)cc(OC)c1O.Cl (some centres not stated) : 25.1

// IC50 lookup, compound = COc1cc([C@@H]2c3cc4c(cc3[C@@H](CCN(C)C3CCCCC3)C3COC(=O)[C@@H]32)OCO4)cc(OC)c1O.Cl (some centres not stated) , result: 60.9

According to the records, this compound COc1cc([C@@H]2c3cc4c(cc3[C@@H](CCN(C)Cc3ccccc3)C3COC(=O)[C@@H]32)OCO4)cc(OC)c1O.Cl (some centres not stated) displays IC50 of 97.3

Field IC50 (entry COc1cc([C@@H]2c3cc4c(cc3[C@@H](CCN(C)C)C3COC(=O)[C@@H]32)OCO4)cc(OC)c1O.Cl (some centres not stated) ) reads 36.7

Documented IC50 of COc1cc([C@@H]2c3cc4c(cc3[C@@H](CCN(C)N3CCN(C)CC3)C3COC(=O)[C@@H]32)OCO4)cc(OC)c1O.Cl.Cl (some centres not stated) : 32.3
